From: patent US6683079B2

# target desc: recombinant HIV-RT enzyme (Human immunodeficiency virus type 1 group M subtype B)
# Construct: the recombinant HIV-RT enzyme
# assay text: Inhibition of the reverse transcriptase
experimental readout: pIC50
One number for each entry, as −log10 of the molar value.

For the compound shown here, CCc1c(C)[nH]c(=O)c(N(C)C)c1Cc1cc(C)cc(C)c1 , give the reported pIC50. 7.70

* * *

# Test system: HIV-1 strain 103 N
# assay text: Retrovirucidal effect on HIV-1 strain 103 N (Table 3)
# Format: cell-based
# study conditions: HIV-1 strain 103N (RT Lys-103 to Asn mutant); pIC50=-log IC50, IC50 in M
Everything with HIV1 pIC50 strain 103N lower than 6 is Condition not met; everything else, including exactly 6, is Condition met.

Known results for compounds:
> print(dat)
                                   compound        label.value
1  CCc1c(C)[nH]c(=O)c(N(C)C)c1[S+]([O-])c1cc(C)cc(C)c1 (centres unmarked)      Condition met
2  CCc1c(C)[nH]c(=O)c(N(C)CCCCCO)c1Cc1cccc(C)c1      Condition met
3       CCc1c(C)[nH]c(=O)c(N)c1C(=O)c1cccs1  Condition not met
4  CCCCNc1c(Cc2cc(C)cc(C)c2)c(CC)c(C)[nH]c1=O  Condition not met
5  CCc1c(C)[nH]c(=O)c(N(C)C)c1C(=O)c1cc(Cl)cc(Cl)c1      Condition met
6  CCc1c(C)[nH]c(=O)c(N(C)C)c1Cc1ccc2ccccc2c1  Condition not met
7   CCc1c(C)[nH]c(=O)c(N(C)C)c1Nc1cccc(C)c1      Condition met
8  CCCc1c(C)[nH]c(=O)c(N(C)C)c1Cc1cc(C)cc(C)c1      Condition met

Does the compound Cc1cc(C)cc(Cc2cc(C)[nH]c(=O)c2N)c1 have recorded HIV1 pIC50 strain 103N that is 6 or more? Condition not met
